measurement.kind: IC50 (nM)
Your answer should be a plain number; it is taken to be in nM.

input: Lookup: IC50 / human μ opioid receptor over-expressed in CHO cells (Homo sapiens) / `C[C@H]1CN(CCCc2ccccc2)[C@@H]2C[C@@H](N)C[C@@]1(c1cccc(O)c1)C2`
output: 20.6

====

Consider the following compounds; for each one, report its Kb.
- test.target: human δ opioid receptor over-expressed in CHO cells (Homo sapiens)
- Sequence (P41143 whole entry): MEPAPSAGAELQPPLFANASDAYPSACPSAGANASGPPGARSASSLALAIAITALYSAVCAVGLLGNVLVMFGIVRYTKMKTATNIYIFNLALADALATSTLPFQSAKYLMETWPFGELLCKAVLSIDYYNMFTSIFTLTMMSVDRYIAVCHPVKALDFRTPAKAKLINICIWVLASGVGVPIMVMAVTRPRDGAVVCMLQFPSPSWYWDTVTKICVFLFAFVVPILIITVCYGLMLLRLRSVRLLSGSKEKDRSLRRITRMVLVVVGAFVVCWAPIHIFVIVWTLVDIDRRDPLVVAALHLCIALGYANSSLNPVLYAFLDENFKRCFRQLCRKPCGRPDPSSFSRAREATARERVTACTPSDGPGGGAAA
- test.protocol: Inhibition of DPDPE-stimulated [35S]GTPγS binding
- Assay type: biochemical
Your answer should be a plain number; it is taken to be in nM.

input: Lookup: Kb / human δ opioid receptor over-expressed in CHO cells (Homo sapiens) / `CCN[C@H]1C[C@H]2C[C@@](c3cccc(O)c3)(C1)[C@H](C)CN2CCCc1ccccc1.Cl.Cl`
output: 230

input: Lookup: Kb / human δ opioid receptor over-expressed in CHO cells (Homo sapiens) / `CCCN[C@H]1C[C@H]2C[C@@](c3cccc(O)c3)(C1)[C@H](C)CN2CCCc1ccccc1.Cl.Cl`
output: 69.4

input: Lookup: Kb / human δ opioid receptor over-expressed in CHO cells (Homo sapiens) / `C[C@H]1CN(CCCc2ccccc2)[C@@H]2C[C@@H](N)C[C@@]1(c1cccc(O)c1)C2`
output: 25.2

====

- test.target: human κ opioid receptor over-expressed in CHO cells (Homo sapiens, UniProt P41145)
- Sequence (P41145 whole entry): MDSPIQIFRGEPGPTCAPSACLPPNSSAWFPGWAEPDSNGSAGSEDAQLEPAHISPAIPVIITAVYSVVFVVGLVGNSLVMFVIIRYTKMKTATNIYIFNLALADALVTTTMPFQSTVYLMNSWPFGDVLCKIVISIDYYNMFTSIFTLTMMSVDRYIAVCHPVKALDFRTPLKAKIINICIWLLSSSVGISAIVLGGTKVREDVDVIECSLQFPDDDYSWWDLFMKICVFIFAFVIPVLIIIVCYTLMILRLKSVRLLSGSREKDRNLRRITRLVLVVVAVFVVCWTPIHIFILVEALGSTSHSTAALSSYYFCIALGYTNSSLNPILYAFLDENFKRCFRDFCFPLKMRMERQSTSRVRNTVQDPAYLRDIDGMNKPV
- test.protocol: Inhibition of κ agonist-stimulated [35S]GTPγS binding
- Type: biochemical
Label true (1) when Kb is strictly below 40 nM; at or above that, label false (0).

input: Confirm or reject: Kb of `CCN(C)[C@H]1C[C@H]2C[C@@](c3cccc(O)c3)(C1)[C@H](C)CN2CCCc1ccccc1` lies strictly below 40 nM
output: false (0)

input: Confirm or reject: Kb of `CN[C@H]1C[C@H]2C[C@@](c3cccc(O)c3)(C1)[C@H](C)CN2CCCc1ccccc1.Cl.Cl` lies strictly below 40 nM
output: false (0)

input: Confirm or reject: Kb of `C[C@H]1CN(CCCc2ccccc2)[C@@H]2C[C@@H](N)C[C@@]1(c1cccc(O)c1)C2` lies strictly below 40 nM
output: true (1)

input: Confirm or reject: Kb of `C[C@@H]1CN(CCCc2ccccc2)[C@H]2C[C@H](N(C)C)C[C@]1(c1cccc(O)c1)C2.Cl.Cl` lies strictly below 40 nM
output: false (0)

input: Confirm or reject: Kb of `C[C@@H]1CN(CCCc2ccccc2)[C@H]2C[C@H](N)C[C@]1(c1cccc(O)c1)C2.Cl.Cl` lies strictly below 40 nM
output: true (1)

input: Confirm or reject: Kb of `CCN[C@H]1C[C@H]2C[C@@](c3cccc(O)c3)(C1)[C@H](C)CN2CCCc1ccccc1.Cl.Cl` lies strictly below 40 nM
output: false (0)
